readout_kind: intrinsic clearance, human liver microsomes (mL/min/kg)

Some solved cases for reference:
INSERT INTO assay_data (smiles_notation, endpoint_result) VALUES
  ('Cn1ccnc1CCNC(=O)c1cccc2cccnc12', 11.5),
  ('CSCC(=O)N1CCc2[nH]nc(-c3cccc(F)c3)c2C1', 57),
  ('Cc1n[nH]c(-c2c(C)c3cc(F)ccc3n2C)n1', 88.2),
  ('CC(C)(C)c1ccc(-c2nc3n(c(=O)c2C#N)CCS3)cc1', 8.57),
  ('COc1cc(CCNC(=O)c2nc3cccc(C)n3c2F)cc(OC)c1', 81.6);

(I) O=C(CN1CCCN(c2ccc(C(F)(F)F)cn2)CC1)Nc1cccc(F)c1
(II) Cc1cc(C(F)(F)F)nc(CCNC(=O)N(C)Cc2c(C)noc2C)n1
Recorded intrinsic clearance, human liver microsomes values differ for I and II ; which one is higher? Please indicate the selected item by its label.
II

====

readout_kind: MDR1-MDCK efflux ratio

Some solved cases for reference:
INSERT INTO measurements (compound, endpoint_result) VALUES
  ('COc1ccccc1C(=O)NCc1nc(C)cc(N2CCCCC2)n1', 0.243),
  ('Cc1cc(C)n2ncc(C(=O)NC3CCCCC3)c2n1', 0.702),
  ('C=CCn1c(=O)c2cnc(Nc3ccc(N4CCN(C)CC4)cc3)nc2n1-c1cccc(C(C)(C)O)n1', 63.4),
  ('Cc1cnc(N2CCSCC2)nc1N1CCSCC1', 0.691),
  ('COc1cc(CCNC2CCC3(CC2)OCCO3)ccc1F', 1),
  ('Cc1ccc2nc(-c3ccc(N(C)C)cc3)[nH]c2c1', 0.316),
  ('CCCCC1=NC2(CCCC2)C(=O)N1Cc1ccc(-c2ccccc2-c2nnn[nH]2)cc1', 75.6),
  ('CCCn1ncnc1-c1ccccc1SC', 0.798),
  ('CN(Cc1nnc(C2CC2)n1C)C(=O)C1C2CC3CC(C2)CC1C3 (stereo not drawn)', 11.1),
  ('CCc1c(-c2ccccc2)[n+]([O-])c2c([n+]1[O-])CCCCC2', 2.95);

(P) O=C1CCCC[C@@H]2[C@H](C[C@@H](Cc3ccccc3F)N2C(=O)c2cccc3ncccc23)N1
(Q) CC(=O)N(C)[C@H]1CC2(CCN(C(=O)COc3ccc(F)cc3F)CC2)OC[C@]1(C)O
Recorded MDR1-MDCK efflux ratio values differ for P and Q ; which one is higher? Please indicate the selected item by its label.
P

(A) Cc1cccc(NC(=O)c2ccccc2-c2ccccc2)n1
(B) Cc1[nH]nc(CCC(=O)NCCCOC2CCCCC2)c1C
Between A and B , which one shows the smaller MDR1-MDCK efflux ratio number? Please indicate the selected item by its label.
A
(A: 0.551, B: 18.2)

(A) CCc1nnc(NC(=O)Cc2c(C)noc2C)s1
(B) O=C(Nc1nnc(SCc2ccc(F)cc2)s1)C1CCC1
(C) CCCn1nccc1NC(=O)c1c(C)noc1C
(D) CC1=C(C(=O)Nc2cc3cn[nH]c3cc2F)C(c2ccc(C(F)(F)F)cc2)CC(=O)N1 (stereo not drawn)
Please list these in order of increasing MDR1-MDCK efflux ratio. Thank you! Reply with the item labels sorted in the order that was asked for.
B, C, A, D

====

readout_kind: MDR1-MDCK efflux ratio

Some solved cases for reference:
INSERT INTO results (molecule, endpoint_result) VALUES
  ('Cc1cc2cc(C(=O)N(Cc3ccc4c(c3)OCO4)C3CC3)ccc2o1', 0.28),
  ('CCc1nc(C(N)=O)c(Nc2ccc(N3CCC(N4CCN(C)CC4)CC3)c(OC)c2)nc1NC1CCOCC1', 133),
  ('O=C(CCc1nnc(-c2ccsc2)o1)N1CCCc2cc(F)c(F)cc21', 0.866),
  ('O=C(c1ccccc1)N1CCN(C(=O)c2ccc(-c3ccccc3Cl)o2)CC1', 0.683);

(P) CCc1nc2ccccc2n1CC(=O)Nc1ncc(C)s1
(Q) Cc1ncc(C(=O)Nc2ncnc3oc(C)c(C)c23)s1
(R) CCOC(=O)N1CCN(C(=O)c2ccc3c(c2)OCO3)CC1
(S) Cc1cccc2ncn(CCc3ncc[nH]3)c(=O)c12
Please list these in order of increasing MDR1-MDCK efflux ratio. Thank you! Reply with the item labels sorted in the order that was asked for.
Q, R, S, P

(I) COC(c1ccccc1)(c1ccccc1)[C@H](Oc1nc(C)cc(C)n1)C(=O)O
(II) c1ccc(CC2=NCCN2)cc1
Recorded MDR1-MDCK efflux ratio values differ for I and II ; which one is higher? Please indicate the selected item by its label.
I
